experiment: in vivo; conditions: female, SD, rat, 100 ug/kg, Concentration of TAP-144 in serum
assayReadout: level at 2 h (ng/mL)
The reply should be a number in ng/mL, with the unit left off.

Qu. What measured level at 2 h goes with CCNC(=O)[C@@H]1CCCN1C(=O)[C@H](CCCNC(=N)N)NC(=O)[C@H](CC(C)C)NC(=O)[C@@H](CC(C)C)NC(=O)[C@H](Cc1ccc(O)cc1)NC(=O)[C@H](CO)NC(=O)[C@H](Cc1c[nH]c2ccccc12)NC(=O)[C@H](Cc1c[nH]cn1)NC(=O)[C@@H]1CCC(=O)N1 [TAP-144] ?
Ans. 39.2
